Settings: in n-butanol, 288.15 K
Metric name: solubility (mole fraction)

Record summary for C=CC1=C(C(=O)O)N2C(=O)[C@@H](NC(=O)/C(=N\OCC(=O)O)c3csc(N)n3)[C@H]2SC1.O.O.O : reported solubility (mole fraction) = 0.00122

###

Details: in acetone, 303.15 K
Metric name: solubility (mole fraction)

Form field solubility (mole fraction), entry C=CC1=C(C(=O)O)N2C(=O)[C@@H](NC(=O)/C(=N\OCC(=O)O)c3csc(N)n3)[C@H]2SC1.O.O.O : 0.0044

###

Settings: in ethyl acetate, 283.15 K
Metric name: solubility (mole fraction)
Number, no unit, nothing else.

Record C=CC1=C(C(=O)O)N2C(=O)[C@@H](NC(=O)/C(=N\OCC(=O)O)c3csc(N)n3)[C@H]2SC1.O.O.O , field solubility (mole fraction): 0.000747

###

Conditions: in ethanol, 298.15 K
Metric name: solubility (mole fraction)
Form rule: numeric answer, no unit written next to it.

Lookup result for C=CC1=C(C(=O)O)N2C(=O)[C@@H](NC(=O)/C(=N\OCC(=O)O)c3csc(N)n3)[C@H]2SC1.O.O.O ; measured solubility (mole fraction): 0.00321

###

Conditions: in acetone, 293.15 K
Metric name: solubility (mole fraction)
API doc: respond with a numeric literal and nothing else, no unit.

Short answer for C=CC1=C(C(=O)O)N2C(=O)[C@@H](NC(=O)/C(=N\OCC(=O)O)c3csc(N)n3)[C@H]2SC1.O.O.O : solubility (mole fraction) was 0.00346

###

Settings: in ethanol, 318.15 K
Metric name: solubility (mole fraction)
A bare number is all that is needed in reply.

Documented solubility (mole fraction) of C=CC1=C(C(=O)O)N2C(=O)[C@@H](NC(=O)/C(=N\OCC(=O)O)c3csc(N)n3)[C@H]2SC1.O.O.O : 0.00536

###

Conditions: in n-butanol, 283.15 K
Metric name: solubility (mole fraction)
Lab note: jot the number down without any unit.

# solubility (mole fraction) of C=CC1=C(C(=O)O)N2C(=O)[C@@H](NC(=O)/C(=N\OCC(=O)O)c3csc(N)n3)[C@H]2SC1.O.O.O = 0.00102

###

Details: in isopropanol, 283.15 K
Metric name: solubility (mole fraction)

Record C=CC1=C(C(=O)O)N2C(=O)[C@@H](NC(=O)/C(=N\OCC(=O)O)c3csc(N)n3)[C@H]2SC1.O.O.O , field solubility (mole fraction): 0.00105

###

Conditions: in acetone, 308.15 K
Metric name: solubility (mole fraction)
// response body must contain only the number

The compound identified as C=CC1=C(C(=O)O)N2C(=O)[C@@H](NC(=O)/C(=N\OCC(=O)O)c3csc(N)n3)[C@H]2SC1.O.O.O registered its solubility (mole fraction) at 0.00518

###

Details: in ethyl acetate, 298.15 K
Metric name: solubility (mole fraction)
Answer with a bare number; do not write a unit.

Entry C=CC1=C(C(=O)O)N2C(=O)[C@@H](NC(=O)/C(=N\OCC(=O)O)c3csc(N)n3)[C@H]2SC1.O.O.O ; solubility (mole fraction) = 0.00139

###

Conditions: in ethyl acetate, 288.15 K
Metric name: solubility (mole fraction)
Answer with a bare number; do not write a unit.

The value of solubility (mole fraction) measured for the compound C=CC1=C(C(=O)O)N2C(=O)[C@@H](NC(=O)/C(=N\OCC(=O)O)c3csc(N)n3)[C@H]2SC1.O.O.O turned out to be 0.000971
